test system: MS2 coat protein; test: apparent KD of MS2 coat protein; designed switch direction (-1 OFF switch, 1 ON switch): 1; higher = weaker reporter binding; conditions: input ligand: none
endpoint.name: apparent KD of MS2 coat protein
// return the numeric value with its unit appended

Sample answers from the record:
Any idea what apparent KD of MS2 coat protein was measured for AUUAAGAGCGUAGGAUAUGGGAAAGGAAGUGUACCAGAAGGACGAAUACAGCGUCCGGACAUGAGGAUCACCCAUGUAGGACGG [PowerStrip SSNG 1.18] (Eterna round: R96, puzzle: Same State NG 1) ?
56.2 nM

What do we get for UUGAAGAAUUAAGGAUAUUGAUUACAUAUGUUUAACAUGAGGAUCACCCAUGUGGGUUGCGGUAUCGAGAAGGUAAAAUAAUAG [Mat - same State NG 2 - JL mod - D82] (Eterna round: R96, puzzle: Same State NG 2) ?
258 nM

Okay, and UUGAUGUACUGAGGAUAUCGUGUCGUCUGUUUUUACAUGAGGAUCACCCAUGUGGGUUGUGGUAUCGAGAAGGCAGUUUUCUUA [JR_SSNG2_Sub030] (Eterna round: R96, puzzle: Same State NG 2) ?
582 nM

What do we get for ACAUGAGACGGAGGAUAUGUUGUACCUACAUGUGACAUGAGGAUCACCCAUGUGGUAAGUAUGAUACAGAAGGCCGAGAUAUGU [Equivalance 58 - Jieux - Same State NG 2] (Eterna round: R96, puzzle: Same State NG 2) ?
18.9 nM

Same again, this time with CCCUCACAUGAGGAUCACCCAUGUCCUAGCCCGUCAGGAUAUAGCCCGCAUCCGCUGCGGCUAGAAGGGACAGCUG [JR_SS001_Sub611] (Eterna round: R96, puzzle: Same State 1)
232 nM

And UAUCCAUAGAUAGGAUAUCAGUAUACAUGAGGAUCACCCAUGUUAUAUUUGGUUUUAAUUUAGUCUGAGAAGGAUCUUGAUGAA [SameState NG2 #2] (Eterna round: R96, puzzle: Same State NG 2) ?
15.3 nM

More entries:
Consider the sequence UGGUACAUGGGAGGAUAUCUCAUGGUGACAUGAGGAUCACCCAUGUAGUUGGUGCCGAAAGGCUGAGAGAAGGCCCAUGUACCU [JL SSNG1 3.76] (Eterna round: R96, puzzle: Same State NG 2) and give its measured apparent KD of MS2 coat protein.
99.9 nM

# iterate: GUGGUCAGACAUGAGGAUCACCCAUGUGGAAUAAAUAACGUACAGGAUAUGGAAUAUAGGAUAUACUAGAAGGGUAGAUUGGUG (Eterna round: R96, puzzle: Same State NG 3)
87.7 nM

Lookup AAACAGUCGCUGCGGCGACCACAUGAGGAUCACCCAUGUACAUAGGAUAUCGCCUAAAAUACUGGCGAGAAGGGUGAUUAAAGA [Vegeonor] (Eterna round: R96, puzzle: Same State NG 3)
55.9 nM

---

Catalogue of apparent KD of MS2 coat protein values
test system: MS2 coat protein; assay: apparent KD of MS2 coat protein; designed switch direction (-1 OFF switch, 1 ON switch): 1; higher = weaker reporter binding; details: input ligand: none
Provide the reading as a plain figure in nM.

Worked examples, 4 sequences total:
apparent KD of MS2 coat protein lookup needed for AGAUCAUGACGAGGAUAUGGUACAUGAGGAUCACCCAUGUAUGUACUAUAAUCCGAAUGAGGAAUCCAGAAGGCGUCGUGGUCA [JL SSNG2 1.14] (Eterna round: R96, puzzle: Same State NG 2) , thanks.
145

One more sequence: UUGCUCGUGUGAGGAUAUGCCGCCGUUUCGGCUGCAGAAGGUACUCUUUUACAUGAGGAUCACCCAUGUCUCUGUUGUUUCGUG [salish99_SSNG1_r04_937] (Eterna round: R96, puzzle: Same State NG 1)
148

What about UUUAUUAAUGCAGGAUAUGAUUAACAUGAGGAUCACCCAUGUGGUGUUGUGAGUAAGGAGAGUGAUCAGAAGGGCAUUUUUUUU [JMF's solution 39] (Eterna round: R96, puzzle: Same State NG 2) ?
402

Check AAACGGCCGAACGGAGGACCACAUGAGGAUCACCCAUGUACAUAGGAUAUCAUGCCAACGAGGCAUGAGAAGGGUGAUUAAAAC [Ribigeso] (Eterna round: R96, puzzle: Same State NG 3) too.
32

Now consider a different sequence.
Reported apparent KD of MS2 coat protein for AGCUAUUACGAAGGAUAUUCUGACAUGAGGAUCACCCAUGUCUUCAUGAUUUAUUGUGAUCACGUGAAGAAGGUUGUACUAACA [SameState NG2 #26] (Eterna round: R96, puzzle: Same State NG 2) : what is it?
72.2
